assay: NCI Yeast Anticancer Drug Screen. Data for the bub3 strain (AID 167); settings: S. cerevisiae bub3 mutant strain, at 50.0 µM, stronger effect = higher value
The panel holds about 79,000 compounds, 15% with a hit somewhere; the sample as a whole holds those more often.
Quick rule for you: growth inhibition at 10% or higher means y, lower means n.

Illustrative cases are given below, each with its answer.
| molecule | assigned label |
| --- | --- |
| CC(=O)N[C@@H](C[S-])C(=O)O.O=[N+]([O-])O.[Ag+] | y |
| Cc1ccc(O)c(CN2CCN(Cc3cc(C)ccc3O)CC2)c1 | y |
| CC12CCC(O)CC1CCC1C2CCC2(C)C(C3=CC(=O)OC3)CCC12 (stereo not given) | y |
| CC12CCC(OC3OC(CO)C(OC4OC(CO)C(O)C(O)C4O)C(O)C3O)CC1CCC1C2CCC2(C)C(C3=CC(=O)OC3)CCC12O (stereo not given) | y |
| O=C(COc1ccc(Cl)c(Cl)c1)Nc1ccc[n+](Cc2ccc(S(=O)(=O)F)cc2Cl)c1 | n |

Here is another molecule to look at.
Form field: growth inhibition at least 10%? Entry: C1CC[N-]CC1.C1CC[N-]CC1.[Cl][Pd][Cl] y

----------
test: NCI Yeast Anticancer Drug Screen. Data for the sgs1 mgt1 strain (AID 161);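 further: 0% = growth of cultures given vehicle only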; details: S. cerevisiae sgs1 mgt1 strain, at 50.0 µM, stronger effect = higher value
Compounds without any hit were thinned out: in the full panel of roughly 79,000, 15% have a hit.
The following molecules are shown together with reported growth inhibition values.
Numbers only; they are read as %.

Examples from the recorded data:
| molecule | obs value |
| --- | --- |
| O=C1c2ccccc2C[CH]1[Hg][Cl] (configuration not stated) | 99.3 |
| CC(CN1CCCCCC1)C(C#N)(c1ccccc1)c1ccccc1 (configuration not stated) | 25.4 |

Please give the documented growth inhibition of CCCCCN1C(=O)C2C(C1=O)C1(Cl)C(Cl)=C(Cl)C2(Cl)C1(Cl)Cl (configuration not stated) 96.4

Please give the documented growth inhibition of O=c1cccc2n1CC1CNC[C@H]2C1 5.8

----------
test: NCI Yeast Anticancer Drug Screen. Data for the cln2 rad14 strain (AID 165);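 further: 0% = growth equal to vehicle treated cultures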; settings: S. cerevisiae cln2 rad14 strain, at 50.0 µM (retest, dose inferred, filed as 5.0)
Compounds without any hit were thinned out: in the full panel of roughly 79,000, 15% have a hit. Activity calls are given as the source filed them. Rule as the data show it: active = growth inhibition above about 70%; inactive = the rest.
Outcomes you can answer with include only these: True (active), False (inactive)

Illustrative cases are given below, each with its answer.
| compound | assigned label |
| --- | --- |
| O=C1C(C(Nc2ccccc2)c2ccccc2)=C([O-])c2ccccc21.O=C1C(C(Nc2ccccc2)c2ccccc2)=C([O-])c2ccccc21.[Co+2] (configuration not stated) | False |
| CCC[CH2][Sn]1([CH2]CCC)[O]CC(Cc2ccccc2)[O]1 (configuration not stated) | True |
| Cl[C](Cl)(Cl)[Hg][C](Cl)(Cl)Cl | True |
| COc1c(Br)cc(/C=C/[N+](=O)[O-])cc1Br | True |
| O=S(O)O.O=S(O)O.[Co].[NH2-].[NH2-].[NH2-].[NH2-] | False |
| CC1=C/C(=C2/N=C(N(C)C)SS2)C(C)=N1 | False |
| O=C(O)C(F)(F)F.[Ag] | True |
| O=NNc1c[nH]c(=O)[nH]c1=O | False |

Could you please tell me the result logged for O=C1CCCC1Cl (configuration not stated) in this assay? False

Could you please tell me the result logged for CC([CH2][Hg][Cl])c1ccccc1 (configuration not stated) in this assay? True

Could you please tell me the result logged for C[C@]12CC[C@H]3[C@@H](CCC4=CC(=O)CC[C@@H]43)[C@@H]1CC[C@@H]2OC(=O)N(CCCl)N=O in this assay? True

Could you please tell me the result logged for CC[C@@]1(O)C[C@H](OC2CC(N(C)C)C(O)C(C)O2)c2c(cc3c(c2O)C(=O)c2c(O)ccc(O)c2C3=O)[C@H]1C(=O)OC (some centres not stated) in this assay? True

Could you please tell me the result logged for C1=CC2CCC[N-]C2N1.C1=CC2CCC[N-]C2N1.[I][Pt+2][I] (configuration not stated) in this assay? True

Could you please tell me the result logged for C/C(=N\N=C(/[Se])N1CCC(C)CC1)c1ccccn1 in this assay? False

----------
experiment: NCI Yeast Anticancer Drug Screen. Data for the sgs1 mgt1 strain (AID 161);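 further: 0% = growth of cultures given vehicle only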; details: S. cerevisiae sgs1 mgt1 strain, at 5.0 µM (retest, dose inferred, filed as 0.5)
The panel holds about 79,000 compounds, 15% with a hit somewhere; the sample as a whole holds those more often. Calls of active or inactive are those of the source. No stated cut-off is given here; in the data, active means growth inhibition above about 70%; inactive means the rest.
Outcomes you can answer with include only these: active, inactive

| compound | assigned label |
| --- | --- |
| C[CH2][Pb]([CH2]C)([CH2]C)[O]C(C)=O | inactive |
| O=[N+]([O-])c1ccc(NP(=S)(Nc2ccc([N+](=O)[O-])cc2)c2ccccc2)cc1 | inactive |
| CCN1C(C)N1P(=S)(OC1CC(C)(C)N(O)C(C)(C)C1)OC1CC(C)(C)N(O)C(C)(C)C1 (stereo not drawn) | inactive |
| Cc1ccc(S(=O)(=O)/N=[Se](\C)c2ccccc2)cc1 (stereo not drawn) | inactive |
| NC(=S)C1=C(N)Oc2c(c(=O)oc3ccccc23)C1c1ccc(Br)cc1 (stereo not drawn) | inactive |

Could you please tell me the result logged for CCC(=O)O.[Ag] in this assay? active

Could you please tell me the result logged for O=C(CBr)OCCBr in this assay? active

Could you please tell me the result logged for CC[CH](C)[Sn](=[O])[c]1ccccc1 (stereo not drawn) in this assay? inactive

----------
The following molecules are shown together with reported growth inhibition values.
assay: NCI Yeast Anticancer Drug Screen. Data for the rad50 strain (AID 155);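 further: 0% = growth of vehicle-only cultures of the same strain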; settings: S. cerevisiae rad50 strain growth inhibition; at 50.0 µM; stronger effect = higher value
The panel holds about 79,000 compounds, 15% with a hit somewhere; the sample as a whole holds those more often.
Numbers only; they are read as %.

| molecule | obs value |
| --- | --- |
| C=C1CC/C=C(/C)C(=O)C(OC(C)=O)C2C1CC2(C)C (stereo not given) | 78 |
| C=C1C(C)C2C(Cc3ccccc3)NC(=O)C23C(OC(C)=O)/C=C/C(C)(O)CC(C)C/C=C/C3C1O (stereo not given) | 91.5 |
| CC1(C)N=C(N)N=C(N)N1c1ccc(CCc2cccc(Cl)c2S(=O)(=O)F)c(Cl)c1 | 99.5 |
| C=CCC1(OC(C)=O)CCC2C3CCC4CC=CCC4(C)C3CCC21C (stereo not given) | -9.9 |
| Nc1ccc([N+](=O)[O-])cc1Cl | 11.8 |

Please give the documented growth inhibition of C[C@]12CCC(O)CC1=CC[C@@H]1[C@@H]2CC[C@]2(C)C(O)[C@H](n3ccnc3)C[C@@H]12 (stereo not given in full) 30.1

Please give the documented growth inhibition of O=C(C(Cl)Cl)N1CCCCC1 -5.2

Please give the documented growth inhibition of CCOP(=S)(N/N=C/c1ccc(C)s1)OCC -19.3

Please give the documented growth inhibition of CN(C)/N=C(\CCN1CCCC1)CC(c1ccccc1)c1c(O)c2ccccc2oc1=O (stereo not given) 55

Please give the documented growth inhibition of CSc1nsc(-c2ccccc2)[s+]1 13

----------
assay: NCI Yeast Anticancer Drug Screen. Data for the mlh1 rad18 strain (AID 175); settings: S. cerevisiae mlh1 rad18 strain growth inhibition; at 5.0 µM (retest, dose inferred, filed as 0.5)
About 79,000 compounds went through this panel and 15% of them were active in at least one assay; those are over-represented in the sample as a whole. Calls of active or inactive are those of the source. No stated cut-off is given here; in the data, active means growth inhibition above about 70%; inactive means the rest.
Outcomes you can answer with include only these: active, inactive

Could you please tell me the result logged for Cc1c2ccncc2c(CN(CCCl)CCCl)c2c3ccccc3n(C)c12 in this assay? inactive

Could you please tell me the result logged for C[CH2][Sn]([F])([CH2]C)[CH2]C in this assay? inactive

Could you please tell me the result logged for O=C([O][Hg][CH2]C1COC([CH2][Hg][O]C(=O)c2ccccc2)CO1)c1ccccc1 (configuration not stated) in this assay? active

Could you please tell me the result logged for O=[n+]1c2ccccc2n([O-])c2ccccc21.[Cl][Cu][Cl] in this assay? inactive

Could you please tell me the result logged for CC1=C(CC/C(C)=C/CCC2(C)CCC([C@H](C)C(=O)O)OO2)C(C)(C)CCC1 (some centres not stated) (tested in a mixture with another compound) in this assay? inactive

Could you please tell me the result logged for CCC[CH2][Pb]([CH2]CCC)([CH2]CCC)[n]1ccnc1 in this assay? active

Could you please tell me the result logged for CN(C)c1ncnc2c1ncn2C1OC(CO)C2NP(=O)(N(CCCl)CCCl)OC21 (configuration not stated) in this assay? inactive

----------
The following molecules are shown together with reported growth inhibition values.
assay: NCI Yeast Anticancer Drug Screen. Data for the bub3 strain (AID 167); settings: S. cerevisiae bub3 mutant strain, at 50.0 µM, stronger effect = higher value
The panel holds about 79,000 compounds, 15% with a hit somewhere; the sample as a whole holds those more often.
Numbers only; they are read as %.

| molecule | growth inhibition / % |
| --- | --- |
| O=CC=O | 33.9 |
| CCN(CC)c1cc[c]([Hg][O]C(C)=O)cc1 | 99 |
| O=P1(C(Cl)Cl)OCCCO1 | -0.15 |
| COC(=O)c1ccccc1NC(=O)C(=O)CC(=O)CC(c1ccccc1)c1c(O)c2ccccc2oc1=O (stereo unspecified) | 24.9 |
| CCCCC(CC)C(=O)NC(N)=O (stereo unspecified) | -12.2 |
| CCCCN1COC2CCCCC21 (stereo unspecified) | -44.4 |
| S=c1nccc[nH]1 | 0.35 |
| CC(C)(Cl)[N+](=O)[O-] | -5.45 |
| COP(=O)(OC)C(=O)c1ccc(C)cc1 | 15.9 |
| O=[N+]([O-])c1ccc(SP(=S)(c2ccccc2)c2ccccc2)c([N+](=O)[O-])c1 | 48 |

Please give the documented growth inhibition of c1ccc(CN2C3CCCC2CC(c2ccccc2)C3)cc1 (stereo unspecified) 65.7

Please give the documented growth inhibition of O=C(O)c1cc[c]([Hg][S]c2ncnc3nc[nH]c23)cc1 97.5

From: PubChem BioAssay (NCI)
